assay: NCI Yeast Anticancer Drug Screen. Data for the bub3 strain (AID 167); details: S. cerevisiae bub3 mutant strain, at 50.0 µM, active compounds read high
This is part of a sample that, as a whole, favours compounds with a hit. Of some 79,000 tested, about 15% had one in any assay. The source made the active and inactive calls. Rule as the data show it: active = growth inhibition above about 70%; inactive = the rest. Where a SMILES comes first, the peptide text is derived from it. The star is where a group is joined. Boc = CC(C)(C)OC(=O)*
Readout: growth inhibition

Query: Please report the recorded growth inhibition for COC(=O)C(Cc1c[nH]c2ccccc12)NC(=O)C(Cc1c[nH]c2ccccc12)NC(=O)C(Cc1c[nH]c2ccccc12)NC(=O)C(Cc1c[nH]c2ccccc12)NC(=O)OC(C)(C)C (stereo not given) (Boc-WWWW-OMe; configuration not given here) .
Response: 4.65% (inactive)

Query: What about OC(c1ccccc1)c1ccc2c(c1)CCC2 (stereo not given) ?
Response: -18% (inactive)

Query: What about CCCCCNC(=O)c1cccc(C)c1 ?
Response: -25.4% (inactive)

Query: What about NC(=O)CCP(=O)(CCC(N)=O)CCC(N)=O ?
Response: -2.95% (inactive)

Query: What about Cc1c[n+]([O-])n(-c2ccccc2)n1 ?
Response: 11.6% (inactive)

---

Test: NCI Yeast Anticancer Drug Screen. Data for the mlh1 rad18 strain (AID 175)
Details: S. cerevisiae mlh1 rad18 strain growth inhibition; at 50.0 µM; active compounds read high
Procedure: Growth inhibition of yeast strains with defined genetic alterations is measured as a screen for potential anti-cancer activity. Selected strains with alterations in DNA damage repair or cell cycle control were exposed to compounds and growth inhibition was measured relative to vehicle treated controls. The strain used in this assay is mlh1 rad18
The panel holds about 79,000 compounds, 15% with a hit somewhere; the sample as a whole holds those more often.
Record form. Attribute: growth inhibition. Fill in for each entry.
Hi! Could you send only the number? It should be in %, unit omitted.

Query: Please report the recorded growth inhibition for Cc1ccc(S(=O)(=O)c2ccc(C(=O)O)cc2)cc1 .
Response: 17

Query: What about Cc1ccc(NC(=O)c2ccco2)c(C)c1 ?
Response: -3.1

Query: What about C=C(C(C)C)C1CC1 ?
Response: -11.8

Query: What about Cc1nnc2c3[nH]c4ccccc4c3c(Cl)nn12 ?
Response: -11.1

Query: What about N[C@@H]1c2c(Br)sc(Br)c2C(=O)[C@H]1Br ?
Response: -17.4

Query: What about O=C(Nc1ccccc1C(=O)N/N=C/c1cccc(O)c1)c1ccccc1 ?
Response: 4.55

Query: What about CC/C(=N/N(C)C)C(=O)OC(C)(C)C ?
Response: -4.2

Query: What about Cc1[nH]c(=O)cc(C(=O)O)c1CN ?
Response: -3.45

Query: What about CCOC(=O)c1ccc(NCCCc2c(C)nc(N)[nH]c2=O)cc1 ?
Response: -2.85

Query: What about COc1ccc(C2c3cc4c(cc3OC(N3CCOCC3)C2C)OCO4)c(OC)c1OC (configuration not stated) ?
Response: 21.7

Query: What about O=C(NCCCCCCNC(=O)Oc1ccccc1F)Oc1ccccc1F ?
Response: -20.9

Query: What about Clc1ccccc1C=NCCN=Cc1ccccc1Cl ?
Response: 1.15

---

assay: NCI Yeast Anticancer Drug Screen. Data for the cln2 rad14 strain (AID 165);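 also: 0% = growth equal to vehicle treated cultures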; details: S. cerevisiae cln2 rad14 strain, at 50.0 µM, active compounds read high
Compounds without any hit were thinned out: in the full panel of roughly 79,000, 15% have a hit.
Record form. Attribute: growth inhibition. Fill in for each entry.
Hi! Could you send only the number? It should be in %, unit omitted.

Query: Please report the recorded growth inhibition for O=C(CCSc1ncnc2nc[nH]c12)c1ccccc1 .
Response: -36.2

Query: What about Cc1cccc(Cl)c1OCC(=O)O ?
Response: -35.8

Query: What about Cc1ccc(/C=N/NC(=O)c2ccccc2NC(=O)c2ccccc2)cc1 ?
Response: 62

Query: What about CCOc1cc2c(cc1O)/C(=N\O)C[C@@H]1[C@@H]2CC[C@]2(C)[C@@H](O)CC[C@@H]12 ?
Response: 20.6

Query: What about Cc1c[n+]([O-])n(-c2ccccc2)n1 ?
Response: -38.7

Query: What about CN(Cc1ccccc1)C(=O)c1cccc(C(=O)N(C)Cc2ccccc2)c1 ?
Response: 13.8

Query: What about CCOC(=O)C1=C(C(C)=O)C(c2ccccc2[N+](=O)[O-])C(C(C)=O)=C(C(=O)OCC)N1 ?
Response: -6.85

Query: What about CCCCCC(C#N)CCC(C)=O (configuration not stated) ?
Response: -6.2

Query: What about Cc1ccc(S(=O)(=O)N(CCO)CC(C)O)cc1 (configuration not stated) ?
Response: -13

Query: What about Cc1ccc(N=Nc2c(C)nc(N)nc2C)cc1 ?
Response: -2.85

Query: What about c1ccc2c(c1)CCOC2 ?
Response: 6.5

Query: What about N[n+]1ccccc1 ?
Response: -37.4

---

Test: NCI Yeast Anticancer Drug Screen. Data for the rad50 strain (AID 155);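 also: 0% = growth of vehicle-only cultures of the same strain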
Settings: S. cerevisiae rad50 strain growth inhibition; at 50.0 µM; active compounds read high
Description: Growth inhibition of yeast strains with defined genetic alterations is measured as a screen for potential anti-cancer activity. Selected strains with alterations in DNA damage repair or cell cycle control were exposed to compounds and growth inhibition was measured relative to vehicle treated controls. The strain used in this assay is rad50
About 79,000 compounds went through this panel and 15% of them were active in at least one assay; those are over-represented in the sample as a whole.
Readout: growth inhibition (%)
Hi! Could you send only the number? It should be in %, unit omitted.

Query: Please report the recorded growth inhibition for Cc1cc(C(N)=O)c(C(N)=O)c(=O)[nH]1 .
Response: -13.1

Query: What about CCOC(=O)CN=NNc1ccccc1C(C)=O ?
Response: 21.4

Query: What about C[N+](C)(CCNc1ccc(NCC[N+](C)(C)Cc2ccc([N+](=O)[O-])cc2)c2c1C(=O)c1c(O)ccc(O)c1C2=O)Cc1ccc([N+](=O)[O-])cc1 ?
Response: 72.2

Query: What about COC(=O)/C(C#N)=C\n1c(=S)[nH]c2ccccc21 ?
Response: -14.2

Query: What about O=C(O)/C=C\C(=O)Nc1ccccn1 ?
Response: -30.6

Query: What about Cc1c(Br)cc(C(=O)O)c(O)c1Br ?
Response: -4.95

Query: What about CCOC(=O)CSc1nnc(N)s1 ?
Response: 21

Query: What about COc1ccc(-c2nc3c(nc2-c2ccc(OC)cc2)C(N)=NS(=O)(=O)N3)cc1 ?
Response: -18.9

Query: What about O=C(Nc1ccc(Cl)c(Cl)c1)C1C(=O)N(c2ccc(Cl)c(Cl)c2)C(=O)/C1=N\O (stereo not drawn) ?
Response: 24.4

Query: What about O=C1C(Cl)=C(N(C(=O)c2ccccc2)C(=O)c2ccccc2)C(=O)c2ccccc21 ?
Response: 6.6

Query: What about Cc1ccc(S(=O)(=O)N2CC(CCl)N(S(=O)(=O)c3ccc(C)cc3)CC2CCl)cc1 (stereo not drawn) ?
Response: 28.5

Query: What about Nc1cccc([N+](=O)[O-])c1O ?
Response: 4.75

Query: What about N#CCCN(C1=NN(C(=O)CC(=O)Nc2ccccc2)C(c2ccccc2)C1)c1ccccc1Cl (stereo not drawn) ?
Response: -5.05

Query: What about CCN(CC)C(=O)CNC(=O)C(c1ccccc1)c1ccccc1 ?
Response: 4.25

Query: What about CCCCC(CCCC)(C(=O)NC)c1ccccc1 ?
Response: 3.85

Query: What about Cc1[nH]c2ccccc2c1C(c1ccccc1O)c1c(C)[nH]c2ccccc12 ?
Response: 20.6

Query: What about O=C1OC(c2ccccc2)C=C1Nc1ccccc1 (stereo not drawn) ?
Response: 9.55

Query: What about Cc1[nH]c(=O)cc(C(=O)O)c1CN ?
Response: 7.15

Query: What about COc1cc(CSCC(=O)O)ccc1O ?
Response: 8.95

Query: What about C/C(=N\NC(=S)N1CCN(c2ccccn2)CC1)c1cccc2cccnc12 ?
Response: 13.4

Query: What about CC1(CCN2CCCC2)NC(=O)NC1=O (stereo not drawn) ?
Response: 15.9

Query: What about CSc1cnn(CCC#N)c(=O)n1 ?
Response: 16.4

Query: What about O=C(OCc1ccc([N+](=O)[O-])cc1)N1c2ccccc2[C@@]23O[C@]24CCC[C@H]3C#C/C=C\C#C[C@H]14 ?
Response: 22.1

---

assay: NCI Yeast Anticancer Drug Screen. Data for the rad50 strain (AID 155);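 also: 0% = growth of vehicle-only cultures of the same strain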; settings: S. cerevisiae rad50 strain growth inhibition; at 50.0 µM; active compounds read high
The panel holds about 79,000 compounds, 15% with a hit somewhere; the sample as a whole holds those more often.
Assign y to entries whose growth inhibition meets or exceeds 10%; assign n to the rest.

Query: Has CSS(=O)(=O)C(c1ccccc1)c1ccccc1 a recorded growth inhibition greater than or equal to 10%?
Response: n

Query: What about CCC1(C)N=C(C(N)=O)c2ncn(N=C(C)C)c2N1 (centres undefined) ?
Response: n

Query: What about CCCCCCCCCCCC[Si](c1ccccc1)(c1ccccc1)c1ccccc1 ?
Response: n

Query: What about CCN(CC)CCCNc1[nH]ncc2c(C)c3nc4ccccc4c3cc12 ?
Response: y

Query: What about Brc1cc(Br)cc(-c2nnc(-c3cccc4ccccc34)o2)c1 ?
Response: n

Query: What about O=C(CCCN1CCC2(CC1)NC(=O)c1ccccc1O2)c1ccc(F)cc1 ?
Response: y

Query: What about CC(N)/C(N)=N/O (centres undefined) ?
Response: y

Query: What about CC(C)C(N=Cc1ccccc1O)C(=O)O (centres undefined) ?
Response: n

Query: What about COc1ccc2nc3c(Cl)cccc3c(Cl)c2c1 ?
Response: y

Query: What about CC(=O)Oc1c(C)cc2c(c1C)C(C)CN2C(C)=O (centres undefined) ?
Response: n

Query: What about CCN(CC)CCOc1ccc(OC)cc1 ?
Response: n

Query: What about CC(=O)OC1CCC2C(C)(CCC3C2(C)CCC2(C)C4CC(C)(C)CCC4(C)CCC32C)C1C (centres undefined) ?
Response: n

Query: What about Cc1cccc2c(NCCC[N+](C)(C)[O-])c3c([N+](=O)[O-])ccc(C)c3nc12 ?
Response: y

Query: What about CCCOP(=O)(CCCP(=O)(OCCC)OCCC)OCCC ?
Response: n

Query: What about CC1CCC(Oc2nc3c(c(=O)n(C)c(=O)n3C)n2C)CC1 (centres undefined) ?
Response: n

Query: What about CCCCC(CC)C(=S)N1CCOCC1 (centres undefined) ?
Response: n

Query: What about O=C(c1cccnc1)c1cc(-c2ccccn2)c(=O)n2ccccc12 ?
Response: n

Query: What about O=c1ccn(C2OC(C(O)CO)C(O)C2O)c(=O)[nH]1 (centres undefined) ?
Response: n

Query: What about CC1=CC2CC(C)C1(C)CCc1ccoc12 (centres undefined) ?
Response: n

Query: What about Cc1ccc(N=Nc2c(C)nn(C(=S)S)c2C)cc1 ?
Response: y

Query: What about CSc1cc(C)c(O)c(CO)c1 ?
Response: n

Query: What about O=C(O)c1ccc(OS(=O)(=O)c2ccccc2)cc1 ?
Response: y

Query: What about O=C(CC(=O)CC(O)(C(F)(F)F)C(F)(F)F)CC(O)(C(F)(F)F)C(F)(F)F ?
Response: y

Query: What about CC(=O)CC(=O)CCC(=O)O ?
Response: y

Query: What about CC(C)(C)C(=O)C(C(c1ccccc1)N1CCOCC1)N1CCOCC1 (centres undefined) ?
Response: y

Query: What about Fc1ccc2c(c1)Nc1ccccc1S2 ?
Response: n

Query: What about C=C1CN(C2=NCCO2)C1 ?
Response: n

Query: What about COc1cc([N+](=O)[O-])cc2c1OC1(C=C2)Oc2ccccc2N1C (centres undefined) ?
Response: n

Query: What about CCNC(=O)OCCN(C)CCOC(=O)NCC ?
Response: n

Query: What about Oc1cc(CN2CCOCC2)c(O)c(CN2CCOCC2)c1 ?
Response: y

Query: What about Clc1ccc2sc(-n3ccc4ccccc43)nc2c1 ?
Response: n

Query: What about CCCCOc1ccc2c(c1)CC[C@@H]1[C@@H]2CC[C@]2(C)C(=O)N(CCCC)C(=O)C[C@@H]12 ?
Response: n

Query: What about COc1cc(OC2OC(CO)C(O)C(O)C2O)c2c(O)c3c(=O)cc(C)oc3cc2c1 (centres undefined) ?
Response: y

Query: What about COc1cccc2c1CCC1=CC(=O)CCC12C (centres undefined) ?
Response: y

Query: What about S=c1o[nH]c(-c2ccccc2)c1C=Nc1ccccc1 ?
Response: n

Query: What about O=c1cc(O)nc(CO)[nH]1 ?
Response: n

Query: What about CC1=C/C(=N/Nc2ccc([N+](=O)[O-])cc2[N+](=O)[O-])CC(C)(C)C1 ?
Response: n

Query: What about Nc1ccccc1CN1C(=O)CCC1=O ?
Response: n

Query: What about COc1ccccc1Oc1ccccc1 ?
Response: n

Query: What about O=C(c1ccc(Cl)cc1)N(C(=S)N1CCN(c2ccccc2)CC1)C1CCCCC1 ?
Response: n

Query: What about COc1cc(C2c3cc4c(cc3OC(O)C2C)OCO4)cc(OC)c1OC (centres undefined) ?
Response: n

Query: What about CCC(CC)C1OCC(O)CO1 (centres undefined) (tested in a mixture with another compound) ?
Response: y

Query: What about O=S(=O)(CS(=O)(=O)N1CCCCC1)N1CCCCC1 ?
Response: n

Query: What about C=CCn1c(=O)n(CC=C)c(=O)n(CC=C)c1=O ?
Response: n

Query: What about CCn1c2ccccc2c2cc(N=Nc3cc(N)ccc3N(C)C)ccc21 ?
Response: n

Query: What about Fc1ccc(NC(=S)NCCN2CCCC2)cc1 ?
Response: n

Query: What about CC1CC(=O)CC(C)C1 (centres undefined) ?
Response: n

Query: What about C[n+]1c(-c2ccc(/C=N/NC(=O)C(=O)N/N=C/c3ccc(-c4cn5ccsc5[n+]4C)cc3)cc2)cn2ccsc21 ?
Response: y
